target: Phospholipase A2 (Naja mossambica); experiment: Binding affinity against phospholipase A2 of Naja mocambique mocambique
recorded-endpoint: pKi
Keep it numeric: pKi is minus log10 of the concentration in mol/L.

// query Entry under review: CCCCCCCCNC(=O)Oc1ccc(OC(=O)NCCCCCCCC)cc1 . Reported pKi?
// result 4.82

// query Next compound: CCCCCCCCNC(=O)Oc1cccc(OC(=O)NCCCCCCCC)c1
// result 5.40
